target: native endogenous human BACE1 (Homo sapiens (Human), UniProt P56817); assay: HEK293Swe Whole Cell Assay (Abeta lowering, ELISA); assay type: cell-based; settings: HEK293/APP751sw cells, Abeta 1-42 in conditioned media; Mean ± SEM; read-out: HEK 293 Swe A-beta (1-42) ELISA IC50
Sequence (P56817 46-501): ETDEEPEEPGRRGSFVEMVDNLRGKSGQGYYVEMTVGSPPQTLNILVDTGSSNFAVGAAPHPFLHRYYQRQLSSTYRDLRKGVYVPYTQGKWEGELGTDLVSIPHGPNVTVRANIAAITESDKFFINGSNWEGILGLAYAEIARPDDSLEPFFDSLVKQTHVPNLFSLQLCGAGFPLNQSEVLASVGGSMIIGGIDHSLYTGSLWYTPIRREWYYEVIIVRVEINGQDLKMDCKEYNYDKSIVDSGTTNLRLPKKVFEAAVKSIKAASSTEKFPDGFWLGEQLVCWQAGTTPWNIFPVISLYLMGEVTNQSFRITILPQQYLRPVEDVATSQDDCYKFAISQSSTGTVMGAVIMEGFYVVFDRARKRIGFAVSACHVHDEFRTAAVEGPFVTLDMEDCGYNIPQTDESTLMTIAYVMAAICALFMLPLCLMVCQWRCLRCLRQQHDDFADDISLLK
Structures can show the parent of a compound that is named as a salt.
Readout Name: pIC50
The meaning of pIC50 here: minus log10 of the concentration in molar units.

Input line: Give the reported pIC50 for NC1=N[C@@]2(c3ccc(F)s3)CN(c3ncc(F)cn3)C[C@H]2CS1 [Example 32, hydrochloride] (system: native endogenous human BACE1 (Homo sapiens (Human), UniProt P56817)).
Output line: 6.45

###

target: native endogenous human BACE1 (Homo sapiens (Human)); assay: HEK293Swe Whole Cell Assay (Abeta lowering, ELISA); type: cell-based; details: HEK293/APP751sw cells, Abeta 1-40 in conditioned media; Mean ± SEM; read-out: HEK 293 Swe A-beta (1-40) ELISA IC50
Where a name gives a salt, the structure may show the parent alone.
Readout Name: pIC50
pIC50 is defined as minus the log10 of a concentration measured in mol/L.

Compound | pIC50
Cl.NC1=N[C@@]2(c3ccccc3)CN(c3ncc(F)cn3)C[C@H]2CS1 [Example 1, hydrochloride] | 6.63

Could you now look at the following compound, please?
Input line: Requested read-out: pIC50. Entry: NC1=N[C@@]2(c3ccc(F)s3)CN(c3ncc(F)cn3)C[C@H]2CS1 [Example 32, hydrochloride]
Output line: 6.46

###

molecular target: human BACE1 (1-460):Fc (Homo sapiens (Human), UniProt P56817); assay: BACE1 FRET Assay; conditions: Mean ± SEM; purified recombinant huBACE1:Fc, FRET substrate, pH 4.6
Sequence (P56817 22-460): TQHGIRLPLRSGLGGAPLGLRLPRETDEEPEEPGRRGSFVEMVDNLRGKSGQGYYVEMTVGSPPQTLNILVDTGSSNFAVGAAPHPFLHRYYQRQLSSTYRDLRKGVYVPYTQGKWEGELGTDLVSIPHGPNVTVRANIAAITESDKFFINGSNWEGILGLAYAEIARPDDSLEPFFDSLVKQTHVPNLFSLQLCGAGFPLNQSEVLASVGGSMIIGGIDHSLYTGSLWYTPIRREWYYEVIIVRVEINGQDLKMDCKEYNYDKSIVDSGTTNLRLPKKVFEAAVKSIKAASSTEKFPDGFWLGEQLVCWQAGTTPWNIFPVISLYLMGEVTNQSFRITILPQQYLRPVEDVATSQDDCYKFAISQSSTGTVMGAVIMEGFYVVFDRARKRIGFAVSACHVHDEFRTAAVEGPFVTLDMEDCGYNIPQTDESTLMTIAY
Structures can show the parent of a compound that is named as a salt.
Measured IC50 by item

Look over these answered cases.
Compound | Result
NC1=N[C@@]2(c3ccc(F)s3)CN(c3ncccn3)C[C@H]2CS1 [Example 30, hydrochloride] | 166 nM
Cl.NC1=N[C@@]2(c3ccccc3)CN(c3ncc(F)cn3)C[C@H]2CS1 [Example 1, hydrochloride] | 64.4 nM

Input line: What value of IC50 on human BACE1 (1-460):Fc (Homo sapiens (Human), UniProt P56817) does NC1=N[C@@]2(c3ccc(F)s3)CN(c3ncc(F)cn3)C[C@H]2CS1 [Example 32, hydrochloride] have?
Output line: 91.2 nM
